- subject of test: pooled human IgG
measurement name: Enzyme Activity Endpoint Assay: scIgG

{"columns": ["protein", "recorded result"],
 "data": [
  ["PRT-28 (protein) MANQEIRYSEVTPYHVTSVWTKGVTPPANFTQGEDVFHAPYVANQGWYDITKTFNGKDDLLCGAATAGNMLHWWFDQNKDQIKRYLEEHPEKQKINFNGEQMFDVKEAIDTKDHQLDSKLFEYFKEKAFPYLSTKHLGVFPDHVLDMFINGYRLSLTNHGPTPVKEGSKDPRGGIFDAVFTRGDQSKLLTSRHDFKEKTLKEISDLIKKELTEGKALGLSHTYANVRINHVINLWGADFDSNGNLKAIYVTDSDSNASIGMKKYFVGVNSAGKVAISAKEIKEDNIGAQVLGLFTLSTGQDSWNQTN", "44 ng/µL"],
  ["PRT-539 (protein) MANQEIRYSKNENPNVTIKWVHGIGEPTQAEKEKIEFYWYETNTTKFFNNRKVTHLGDSNQCWAKTASNMLHWWFEQNKENINKYIEKKNITGKINFNGEQMFDVKEGIDDNQEKEKSYIANTFRTKKAHNLSTKHKGDYIISGLAWYLYGLNNFKNAHGPTPVKKKPKFYGPALFKDVFNRGDGNTPIKEETDFKEYTKKEFEDILKEALDSKKAIGINIYGSNVGYGHAITLWGAAFDEDNNIIAIYVVDNNFKFENRIFPYGIWYEKEGRPYLFNYEINSFVKNRYVGEITTLDKGEAQWQETNLEHHHHHH", "0 ng/µL"]
]}
